- measurement.target: α4β7 integrin (Homo sapiens, UniProt P13612+P26010)
- Construct: monitoring the capture of α4β7 integrin expressing cells on a recombinant MadCAM-1 extracellular domain-coated plate; endogenous in cells; host or cells: RPMI8866 cells
- Sequence (P13612 34-1032): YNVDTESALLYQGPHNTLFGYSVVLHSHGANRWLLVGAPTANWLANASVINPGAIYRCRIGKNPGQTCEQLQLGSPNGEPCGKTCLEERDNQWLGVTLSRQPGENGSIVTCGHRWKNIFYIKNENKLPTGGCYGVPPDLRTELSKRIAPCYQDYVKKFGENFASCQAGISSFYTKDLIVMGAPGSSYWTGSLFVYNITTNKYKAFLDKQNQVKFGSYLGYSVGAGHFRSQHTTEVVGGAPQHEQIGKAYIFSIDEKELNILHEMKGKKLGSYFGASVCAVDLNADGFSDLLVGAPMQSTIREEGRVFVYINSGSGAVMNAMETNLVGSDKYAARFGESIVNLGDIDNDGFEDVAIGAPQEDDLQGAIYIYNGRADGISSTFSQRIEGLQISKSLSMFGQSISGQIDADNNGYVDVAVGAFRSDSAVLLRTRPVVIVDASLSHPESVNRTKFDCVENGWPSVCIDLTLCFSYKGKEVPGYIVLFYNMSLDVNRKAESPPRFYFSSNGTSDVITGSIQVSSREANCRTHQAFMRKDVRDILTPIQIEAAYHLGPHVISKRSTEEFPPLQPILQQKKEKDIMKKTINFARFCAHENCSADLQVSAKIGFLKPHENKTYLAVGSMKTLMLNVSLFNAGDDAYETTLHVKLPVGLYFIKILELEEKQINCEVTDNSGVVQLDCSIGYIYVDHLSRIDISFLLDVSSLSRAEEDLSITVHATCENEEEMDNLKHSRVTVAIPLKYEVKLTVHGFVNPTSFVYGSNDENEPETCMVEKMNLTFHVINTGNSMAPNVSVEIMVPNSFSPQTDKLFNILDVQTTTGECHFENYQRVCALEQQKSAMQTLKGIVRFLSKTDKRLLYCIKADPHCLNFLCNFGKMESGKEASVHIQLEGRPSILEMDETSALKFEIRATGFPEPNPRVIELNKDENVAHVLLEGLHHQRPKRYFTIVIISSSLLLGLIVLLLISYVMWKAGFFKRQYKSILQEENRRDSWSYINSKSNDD
- Sequence (P26010 20-798): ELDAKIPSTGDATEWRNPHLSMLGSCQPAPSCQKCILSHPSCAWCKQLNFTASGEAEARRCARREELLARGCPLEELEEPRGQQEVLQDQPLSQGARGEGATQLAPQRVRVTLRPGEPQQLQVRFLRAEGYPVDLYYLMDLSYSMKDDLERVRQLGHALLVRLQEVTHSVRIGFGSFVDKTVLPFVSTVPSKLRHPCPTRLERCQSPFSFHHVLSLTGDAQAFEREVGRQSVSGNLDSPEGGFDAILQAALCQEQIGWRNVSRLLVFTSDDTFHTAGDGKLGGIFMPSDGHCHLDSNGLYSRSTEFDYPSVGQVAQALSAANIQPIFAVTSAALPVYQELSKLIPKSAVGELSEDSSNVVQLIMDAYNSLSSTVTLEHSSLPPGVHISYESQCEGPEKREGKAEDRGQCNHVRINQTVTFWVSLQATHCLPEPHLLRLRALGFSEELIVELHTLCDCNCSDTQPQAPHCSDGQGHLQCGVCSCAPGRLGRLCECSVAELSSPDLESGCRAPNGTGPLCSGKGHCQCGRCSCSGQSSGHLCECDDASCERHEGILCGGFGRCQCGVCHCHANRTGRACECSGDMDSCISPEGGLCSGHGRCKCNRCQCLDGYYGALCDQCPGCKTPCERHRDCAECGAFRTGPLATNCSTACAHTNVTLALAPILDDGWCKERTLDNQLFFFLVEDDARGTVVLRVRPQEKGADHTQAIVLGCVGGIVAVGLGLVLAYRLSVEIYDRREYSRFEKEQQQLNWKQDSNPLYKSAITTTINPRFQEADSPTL
- test: α4β7 Integrin Cell Capture Assay
- Format: cell-based
- test.settings: capture of α4β7 integrin expressing RPMI8866 cells on recombinant MadCAM-1 extracellular domain-coated plate; DMEM+0.5% FBS+0.5 mM MnCl2; read-out: EC50 α4β7
Please go through the items and note down their log10 EC50.
// stored as log10 of EC50 expressed in nM

Below, 4 compounds whose answers are already recorded.
>>> number("Cn1cc(-c2ccc(C[C@H](NC(=O)c3c(Cl)cccc3Cl)C(=O)O)c3ncccc23)c(C(F)(F)F)n1 [Example 17]")
2.55
>>> number("COc1cccc(OC)c1-c1ccc(CC(NC(=O)c2c(F)cc(NS(=O)(=O)c3ccc(-n4cncn4)cc3)cc2F)C(=O)O)c2cnccc12 (stereo not shown) [Example 163]")
-0.05
>>> number("Cc1ccn(C)c(=O)c1-c1ccc(CC(NC(=O)c2c(Cl)cccc2Cl)C(=O)O)c2ncccc12 (stereo not shown) [Example 30]")
1.67
>>> number("Cn1c(=O)c(-c2ccc(C[C@H](NC(=O)c3c(Cl)cccc3Cl)C(=O)O)c3ncccc23)c(C(F)(F)F)c2ccccc21 [Example 59]")
1.03

Your task in this section: give log10 EC50 for each listed record.
1. Cc1c(-c2ccc(C[C@H](NC(=O)c3c(Cl)cccc3Cl)C(=O)O)c3ccccc23)c(=O)n(C)c(=O)n1C (single isomer, unassigned) [Example 110]
2. Cc1cc(-c2ccc(C[C@H](NC(=O)c3c(Cl)cccc3Cl)C(=O)O)c3ncccc23)c(=O)n(C)c1 [Example 31]
3. O=C(N[C@@H](Cc1ccc(-c2c(Cl)cc(F)cc2Cl)c2nsnc12)C(=O)O)c1c(F)cccc1F [Example 150]

1. 1.15
2. 1.37
3. 2.26

---

- measurement.target: α4β7 integrin (Homo sapiens, UniProt P13612+P26010)
- Construct: monitoring the capture of α4β7 integrin expressing cells on a recombinant MadCAM-1 extracellular domain-coated plate; endogenous in cells; host or cells: RPMI8866 cells
- test: α4β7 Integrin Cell Capture Assay
- Format: cell-based
- test.settings: capture of α4β7 integrin expressing RPMI8866 cells on recombinant MadCAM-1 extracellular domain-coated plate; DMEM+0.5% FBS+0.5 mM MnCl2; read-out: EC50 α4β7
- Method: α4β7 Integrin Cell Capture Assay The potency of inhibitors in preventing α4β7 integrin interaction with MadCAM-1 was measured by monitoring the capture of α4β7 integrin expressing cells on a recombinant MadCAM-1 extracellular domain-coated plate. 384-Well plates (Corning 3702) were coated with MadCAM-1 extracellular domain by dispensing 20 μL of MAdCAM-1 at 1.0 μg/mL per well and incubating overnight at 4° C. […]
Please go through the items and note down their EC50.
Give bare numbers, in nM.

Below, 2 compounds whose answers are already recorded.
>>> number("Cc1c(-c2ccc(C[C@H](NC(=O)c3c(F)cc(N4CCOC[C@@H]4C(F)(F)F)cc3F)C(=O)O)c3ncccc23)c(=O)n(C)c2ccc(F)cc12 (single isomer, unassigned) [Example 87]")
2.9
>>> number("Cc1c(-c2ccc(C[C@H](NC(=O)c3c(Cl)cccc3Cl)C(=O)O)c3ncccc23)c(=O)n(C)c2ccc(Cl)cc12 (single isomer, unassigned) [Example 76]")
55.7

Here's the next entry for you.
Any idea what its EC50 is? The compound is COc1cc(F)cc(C(F)(F)F)c1-c1ccc(C[C@H](NC(=O)c2c(Cl)cccc2Cl)C(=O)O)c2ncccc12 (single isomer, unassigned) [Example 49]
46.2

meta.source: patent US11179383B2
